Below, each of the compounds is paired with its reported GI50 value.
# System: A498
# protocol.description: NCI tumour cell line growth inhibition, 48 h
The source made the active and inactive calls. Cut-off read from the data, not from the text of the source: active = GI50 up to about 1.1 µM and inactive = higher. Peptide text beside a SMILES is read from it. * marks the point of attachment. Cbz = O=C(OCc1ccccc1)*; Boc = CC(C)(C)OC(=O)*; OBn = c1ccc(CO*)cc1
value.type: GI50

{"columns": ["compound", "value.type", "result"],
 "data": [
  ["NN(CC(=O)O)CC(=O)O", "GI50", "> 100 µM (inactive)"],
  ["Cc1cc(C)nc(NS(=O)(=O)c2ccc(Nc3c4ccccc4nc4c(C(=O)NC(CO)(CO)CO)cccc34)cc2)n1", "GI50", "31.3 µM (inactive)"],
  ["COc1cc2ccnc(-c3c4ccccc4c(N)c4c(OC)c(OC)ccc34)c2cc1OC", "GI50", "3.02 µM (inactive)"],
  ["O=C(O)c1ccc2c(c1)C(=O)N(c1ccc(S(=O)(=O)c3ccc(N4C(=O)c5ccc(C(=O)O)cc5C4=O)cc3)cc1)C2=O", "GI50", "> 100 µM (inactive)"],
  ["COC(=O)C(CCCCNC(=O)OCc1ccccc1)NC(=O)C(CCC(=O)OCc1ccccc1)NC(=O)OC(C)(C)C (centres undefined) (Boc-Glu(OBn)-Lys(Cbz)-OMe; configuration not given here)", "GI50", "16.1 µM (inactive)"],
  ["CN1C(=O)CC2(C)c3cc(C=O)ccc3N(C)C12 (centres undefined)", "GI50", "> 100 µM (inactive)"],
  ["O=c1oc(C(C(F)(F)F)C(F)(F)F)nc2ccccc12", "GI50", "> 100 µM (inactive)"],
  ["O=C1c2c[nH]nc2C(c2ccccc2)N1c1ccccc1 (centres undefined)", "GI50", "> 10 µM (inactive)"],
  ["COc1ccc(-c2coc3c4c(ccc3c2=O)OCO4)cc1OC", "GI50", "> 100 µM (inactive)"]
]}

* * *

Below, each of the molecules is paired with its reported GI50 value.
# Tested on: Malme-3M
# protocol.description: NCI tumour cell line growth inhibition, 48 h
The source made the active and inactive calls. Cut-off read from the data, not from the text of the source: active = GI50 up to about 1.1 µM and inactive = higher.
value.type: GI50

{"columns": ["molecule", "value.type", "result"],
 "data": [
  ["CC(=O)NC1C(OCc2ccccc2)OC(CO)C(O)C1OCC(=O)NC(C)C(=O)NC(CCC(=O)NCCCCNc1ccc([N+](=O)[O-])c2[nH]c3ccccc3c(=O)c12)C(N)=O (centres undefined)", "GI50", "> 100 µM (inactive)"],
  ["O=C(/C(=C\\I)c1ccccc1)c1ccccc1", "GI50", "7.31 µM (inactive)"],
  ["CC1(C)CCCC2CC2CCC(C)(C)C1=O (centres undefined)", "GI50", "58.3 µM (inactive)"],
  ["CCOc1ccccc1NC(=O)CSc1nnc(Cc2ccccc2)o1", "GI50", "15.6 µM (inactive)"],
  ["CC1=NN(c2nc(N)nc(/C(C#N)=C/c3cccn3-c3cc(Cl)cc(Cl)c3)n2)C(C)(C)C1", "GI50", "> 100 µM (inactive)"],
  ["COc1ccc(/N=N/c2c(C)c(C#N)c(=S)n(C3OC(COC(C)=O)C(OC(C)=O)C(OC(C)=O)C3OC(C)=O)c2C)cc1 (centres undefined)", "GI50", "> 100 µM (inactive)"],
  ["CC1(C)N[PH]2(Nc3ccccc3O2)OC1=O", "GI50", "38.4 µM (inactive)"],
  ["O=C(CCN1CCCCC1)Nc1ccc2c(c1)C(=O)c1ccc(NC(=O)CCN3CCCCC3)cc1C2=O", "GI50", "10.5 µM (inactive)"],
  ["O=C(O)c1ccc2c(c1)C(=O)N(c1ccc(S(=O)(=O)c3ccc(N4C(=O)c5ccc(C(=O)O)cc5C4=O)cc3)cc1)C2=O", "GI50", "> 100 µM (inactive)"]
]}

* * *

# Test system: 786-0
# protocol.description: NCI tumour cell line growth inhibition, 48 h
Activity calls are given as the source filed them. Cut-off read from the data, not from the text of the source: active = GI50 up to about 1.1 µM and inactive = higher.
Below, each of the compounds is paired with its reported GI50 value.
value.type: GI50

{"columns": ["compound", "value.type", "result"],
 "data": [
  ["NC(=O)C1=C(O)C[C@@H]2CC3Cc4cccc(O)c4C(=O)C3=C(O)[C@]2(O)C1=O (stereo partly drawn)", "GI50", "3.24 µM (inactive)"],
  ["O=C1c2c[nH]nc2C(c2ccccc2)N1c1ccccc1 (stereo not drawn)", "GI50", "> 10 µM (inactive)"],
  ["O=C1CSC(=S)N1", "GI50", "> 100 µM (inactive)"]
]}

* * *

# Test system: HL-60
# protocol.description: NCI tumour cell line growth inhibition, 48 h
The source made the active and inactive calls. Cut-off read from the data, not from the text of the source: active = GI50 up to about 1.1 µM and inactive = higher.
Labels: 1 for active, -1 for inactive

{"columns": ["compound", "group"],
 "data": [
  ["CC1(C)CCC2=C(O1)/C(=N\\Nc1ccc(S(N)(=O)=O)cc1)c1ccccc1C2=O", -1],
  ["O=C(N/N=C/c1ccccc1O)N/N=C/c1ccccc1O", -1],
  ["Cc1c(C(=O)CC(=O)C(=O)Nc2cccc(C(F)(F)F)c2)[n+]([O-])c2ccccc2[n+]1[O-]", -1],
  ["O=C(CC(=O)c1ccccc1NC1=Cc2ccccc2C(=O)C1=O)C(=O)NC1=C(Cl)C(=O)c2ccccc2C1=O", 1],
  ["CCCCc1c2c(nc3c1CCCC3O)/C(=C/c1ccccc1)CCC2 (stereo not given)", -1],
  ["CCOc1ccccc1NC(=O)CSc1nnc(Cc2ccccc2)o1", -1],
  ["COP1(=O)Oc2ccccc2C(=O)C(C(F)(F)F)(C(F)(F)F)O1 (stereo not given)", -1],
  ["N=C(CC(=O)Nc1ccc(Cl)cc1)Nc1ccccc1", -1],
  ["O=C1C(Cl)C2(CC(/C=C/c3ccccc3O)=NN2c2cccc(S(=O)(=O)O)c2)N1c1nc2ccccc2s1 (stereo not given)", -1],
  ["Cc1ccc(-c2cc(=O)c3cc(C)c(C)c(C(=O)O)c3o2)cc1C", -1]
]}

* * *

Below, each of the compounds is paired with its reported GI50 value.
# System: MOLT-4
# protocol.description: NCI tumour cell line growth inhibition, 48 h
Active and inactive are the calls of the source. No stated cut-off is given here; in the data, active = GI50 up to about 1.1 µM and inactive = higher.

{"columns": ["compound", "experimental.target", "GI50"],
 "data": [
  ["COc1ccc(C(=C2C(=O)OC(=O)C2=C(C)C)c2ccc(OC)cc2)cc1", "MOLT-4", "57.4 µM (inactive)"],
  ["COc1cc(C2SCC(=O)N2c2ccc(Cl)cc2)cc(I)c1O (stereo unspecified)", "MOLT-4", "21.9 µM (inactive)"],
  ["NC1CC(=O)c2csc(Br)c21 (stereo unspecified)", "MOLT-4", "15.1 µM (inactive)"],
  ["O=C(CCN1CCCCC1)Nc1ccc2c(c1)C(=O)c1ccc(NC(=O)CCN3CCCCC3)cc1C2=O", "MOLT-4", "3.83 µM (inactive)"],
  ["CCc1c(CN)c(CC)c(CNC2=NCCN2)c(CC)c1CNC1=NCCN1", "MOLT-4", "> 100 µM (inactive)"],
  ["COC(=O)C1CCC(=O)N1C(c1ccc2c(c1)OCO2)c1ccc2c(c1)OCO2 (stereo unspecified)", "MOLT-4", "> 100 µM (inactive)"]
]}

* * *

# Test system: IGROV-1
# protocol.description: NCI tumour cell line growth inhibition, 48 h
Active and inactive are the calls of the source. No stated cut-off is given here; in the data, active = GI50 up to about 1.1 µM and inactive = higher. Where a SMILES comes first, the peptide text is derived from it. [ ]: non-standard residue; d: D form. The star is where a group is joined. NMeF = CN[C@@H](Cc1ccccc1)C(=O)O; NMeV = CN[C@H](C(=O)O)C(C)C; Boc = CC(C)(C)OC(=O)*; OBn = c1ccc(CO*)cc1
Labels: YES = active, NO = inactive

{"columns": ["compound", "group"],
 "data": [
  ["Cc1cc(N(CCC#N)CCC#N)ccc1CC1N=C(c2ccccc2)OC1=O (configuration not stated)", "NO"],
  ["CC(C)[C@@H](C(=O)N1CCC[C@H]1C(=O)OCc1ccccc1)N(C)C(=O)[C@H](C(C)C)N(C)C(=O)[C@H](Cc1ccccc1)N(C)C(=O)[C@H](NC(=O)OC(C)(C)C)C(C)C (Boc-[dV][NMeF][NMeV][NMeV]P-OBn)", "NO"],
  ["COc1cc2c(cc1-c1coc3cc(O)ccc3c1=O)OCO2", "NO"],
  ["CCOc1ccc(/C=C2\\N=C(c3ccccc3)OC2=O)cc1", "NO"],
  ["CCOC(=O)n1[nH]c(=O)n(-c2ccccc2)c1=O", "NO"],
  ["Cc1cc(-c2nc3cc(F)ccc3s2)ccc1NC(=O)[C@@H](N)CCCCN", "YES"],
  ["O=C1CCCCCCCCCCC(=O)N2CCOCCOCCN1Cc1cccc(n1)C2", "NO"]
]}

* * *

# System: HCC 2998
# protocol.description: NCI tumour cell line growth inhibition, 48 h
The source made the active and inactive calls. Rule as the data show it: active = GI50 up to about 1.1 µM and inactive = higher. Non-standard residues stand in square brackets, D forms with d. Residues, ends and D or L forms follow the SMILES beside them. ξ: configuration not given here. *: point of attachment. ξNMeF = CNC(Cc1ccccc1)C(=O)O; NMeV = CN[C@H](C(=O)O)C(C)C; Boc = CC(C)(C)OC(=O)*; OBn = c1ccc(CO*)cc1
Labels: active, inactive

{"columns": ["molecule", "experimental.target", "group"],
 "data": [
  ["O=C1CC[C@@]23CC(=O)O[C@@H]2CCCC3C1 (some centres not stated)", "HCC 2998", "inactive"],
  ["CC(C)[C@@H](C(=O)N(C)[C@H](C(=O)N1CCC[C@H]1C(=O)OCc1ccccc1)C(C)C)N(C)C(=O)C(Cc1ccccc1)N(C)C(=O)[C@H](NC(=O)OC(C)(C)C)C(C)C (some centres not stated) (Boc-[dV][ξNMeF][NMeV][NMeV]P-OBn)", "HCC 2998", "inactive"],
  ["C/C=C(\\C)c1cc(=O)c2c(C)cc3c(c2o1)C(=O)c1c(O)c(C2CC(C)(N(C)C)C(OC(C)=O)C(C)O2)cc(C2CC(N(C)C)C(O)C(C)O2)c1C3=O (configuration not stated)", "HCC 2998", "active"],
  ["Cc1cc(N(CCC#N)CCC#N)ccc1CC1N=C(c2ccccc2)OC1=O (configuration not stated)", "HCC 2998", "inactive"],
  ["CCOC(=O)Cn1c(=O)c2cc(-c3ccccc3)cc3c(Cl)nc4c(OC)c(OC)cc1c4c32", "HCC 2998", "inactive"],
  ["O=C(CC(=O)c1ccccc1NC1=Cc2ccccc2C(=O)C1=O)C(=O)NC1=C(Cl)C(=O)c2ccccc2C1=O", "HCC 2998", "inactive"],
  ["Cc1cc(-c2nc3cc(F)ccc3s2)ccc1NC(=O)[C@@H](N)CCCCN", "HCC 2998", "active"]
]}
